Conditions: in vivo
Please go through the items and note down their log Po^in situ (obs).
A bare number is all that is needed in reply.

Quick check: log Po^in situ (obs) of `COc1ccc2c3c1O[C@H]1C[C@@H](O)C=C[C@@]31CCN(C)C2` ?
−3.24

Looking for the measured log Po^in situ (obs) of `O=C(O)CCCc1ccc(N(CCCl)CCCl)cc1` , can you help?
−0.80

Request the reported log Po^in situ (obs) associated with `CC(C)[C@H](NC(=O)[C@H](CCC(=O)O)NC(=O)[C@H](Cc1ccccc1)NC(=O)[C@@H](C)NC(=O)[C@@H](N)Cc1ccc(O)cc1)C(=O)N[C@H](C(=O)NCC(N)=O)C(C)C`
−6.56

Fill in the blank: the reported log Po^in situ (obs) of `CCOC(=O)C1(c2ccccc2)CCN(C)CC1` is ____.
−2.05

# input compound: `N[C@H](Cc1ccc(F)cc1)C(=O)O` ; wanted: its log Po^in situ (obs)
−4.84

Any idea what its log Po^in situ (obs) is? The compound is `N[C@@H](Cc1ccc(N(CCCl)CCCl)cc1)C(=O)O`
−5.27

# log Po^in situ (obs) lookup, item `CN1C[C@H](C(=O)N[C@]2(C)O[C@@]3(O)[C@@H]4CCCN4C(=O)[C@H](Cc4ccccc4)N3C2=O)C=C2c3cccc4[nH]cc(c34)C[C@H]21`
−3.82

GET /values?readout=log Po^in situ (obs)&item= COc1ccc(C(CN(C)C)C2(O)CCCCC2)cc1 (stereo not shown)
−1.66

Item under review: `COc1ccc2c3c1O[C@H]1[C@@H](O)C=C[C@H]4[C@@H](C2)N(C)CC[C@@]341` . Reported log Po^in situ (obs)?
−3.80

So what's the measured log Po^in situ (obs) for this one? CCC12CCN(CC3(O)CC3)C(Cc3ccc(O)cc31)C2(C)C (stereo not shown)
−2.96
